B1: PDLIM4 (parent)
chain: FLDERLYCESHAKARVKPPEGYDV

Variants of: B1
Assay: protein stability index of a GFP-peptide fusion (GPS, HEK-293T) (PSI 1-6); higher = more stable;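 further: lentivirally expressed fusions sorted by FACS into six bins by GFP to DsRed ratio, PSI derived from sequencing read proportions per bin multiplied by bin number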
Conditions: c terminus: a fixed tail appended
Experimental readout: protein stability index
No unit in the answer, please; the number alone is enough.

[Q] Supply measured protein stability index of Y7V in your reply.
[A] 3.85

[Q] Give me measured protein stability index, please, for this variant: L6S
[A] 2.47

[Q] Output protein stability index of E9D
[A] 1.8

[Q] Complete the entry with protein stability index for L6M
[A] 2.87

[Q] Consider the variant K17C . State its measured protein stability index.
[A] 1.99

[Q] Specify reported protein stability index for the variant shown: L2C
[A] 1.96

[Q] Return protein stability index for the following variant: S10V
[A] 1.4

[Q] Retrieve protein stability index measured for P19W and print it.
[A] 2.75

[Q] Quickly give me recorded protein stability index for E9H
[A] 2.13

[Q] Return reported protein stability index. Input variant: S10D
[A] 2.01

[Q] Hello, please tell me recorded protein stability index for this one: C8T
[A] 2.62

[Q] Look up and state reported protein stability index for F1S
[A] 4.63

[Q] Quote protein stability index reported for D3K please.
[A] 2.49

[Q] Output protein stability index of H11I
[A] 2.19

[Q] Give recorded protein stability index. R15F
[A] 2.33

[Q] State its protein stability index for this variant: Y22G
[A] 2.68

[Q] Answer with the recorded protein stability index of L2I only.
[A] 1.38

[Q] Tell me protein stability index reported for V16Y
[A] 1.51

[Q] Give protein stability index for the following variant: R5A
[A] 1.86

[Q] Query protein stability index for L6V
[A] 1.59

[Q] Note protein stability index for the variant shown: P18D
[A] 1.36

[Q] Give the measured protein stability index for D23T
[A] 2.03

[Q] Look up and state reported protein stability index for V16K
[A] 3.09

[Q] State its protein stability index: G21P
[A] 1.8

[Q] Give protein stability index for S10H
[A] 1.58

[Q] Identify protein stability index associated with the variant E20N
[A] 2.28

[Q] State its protein stability index: V24M
[A] 2.12

[Q] Indicate the recorded protein stability index value for this variant: P18G
[A] 1.75

[Q] Check the records and state protein stability index for V16N
[A] 1.96

[Q] Supply measured protein stability index of Y7I in your reply.
[A] 3.6

[Q] Name the recorded protein stability index of the item R15D in your answer.
[A] 1.93

[Q] Let me know recorded protein stability index for K17E , thanks.
[A] 2.08

[Q] Identify measured protein stability index associated with A14L
[A] 1.75

[Q] For the variant H11N , give its measured protein stability index value.
[A] 1.86

[Q] Recall and state the measured protein stability index for A14Q .
[A] 2.29

[Q] Specify protein stability index for Y7S and stop.
[A] 3.89

[Q] Give the reported value of protein stability index for this record: P19S
[A] 1.11

[Q] Please look at this variant and report its protein stability index: E4Y
[A] 2.02

[Q] Retrieve protein stability index measured for G21A and print it.
[A] 1.83

[Q] Give the reported protein stability index for this variant. V16T
[A] 3.71

[Q] Read off the recorded protein stability index for E4R
[A] 3.33

[Q] Return the recorded protein stability index value; entry: S10C
[A] 1.95

[Q] # return recorded protein stability index for entry G21C
[A] 1.89

[Q] Identify measured protein stability index associated with K13P
[A] 2.24

[Q] Using the record for G21E , state its measured protein stability index.
[A] 2.62

[Q] Determine from records and report protein stability index for A12E
[A] 1.47
